Numbers sourced from ChEMBL document CHEMBL5335794.

Biological target: UniProtKB P81908
Sequence (P81908 whole entry): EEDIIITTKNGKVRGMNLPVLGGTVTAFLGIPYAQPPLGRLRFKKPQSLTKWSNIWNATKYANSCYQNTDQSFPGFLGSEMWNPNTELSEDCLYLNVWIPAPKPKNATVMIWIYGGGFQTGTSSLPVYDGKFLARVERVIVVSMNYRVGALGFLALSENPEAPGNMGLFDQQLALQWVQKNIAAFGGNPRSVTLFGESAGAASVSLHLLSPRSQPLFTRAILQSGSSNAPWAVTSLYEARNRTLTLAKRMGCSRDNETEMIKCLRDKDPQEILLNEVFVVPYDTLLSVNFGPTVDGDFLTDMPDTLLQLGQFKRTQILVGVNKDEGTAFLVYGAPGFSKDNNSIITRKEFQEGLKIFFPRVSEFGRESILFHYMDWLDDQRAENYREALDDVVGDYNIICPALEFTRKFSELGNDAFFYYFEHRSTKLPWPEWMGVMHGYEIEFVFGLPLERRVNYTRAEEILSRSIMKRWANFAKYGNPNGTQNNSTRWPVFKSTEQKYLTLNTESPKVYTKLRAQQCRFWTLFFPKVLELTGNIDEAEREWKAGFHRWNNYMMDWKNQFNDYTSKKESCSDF
With a cut-off of 3 µM, any IC50 strictly below it is called Yes; any IC50 meeting it or above is called No.

CN(CCC=C1c2ccccc2-c2ccccc21)C(CCO)C(=O)NCc1ccccc1Cl (stereo not given) ... Yes
CN(CCC=C1c2ccccc2CCc2ccccc21)C(CCN)C(=O)NCc1ccccc1Cl (stereo not given) ... Yes
CN(CCOCCn1c2ccccc2c2ccccc21)C(CCN)C(=O)NCc1ccccc1 (stereo not given) ... Yes
CN(CCOCCn1c2ccccc2c2ccccc21)C(CCO)C(=O)NCc1ccccc1 (stereo not given) ... No
CC(=O)NCCC(C(=O)NCc1ccc(C)cc1)N(C)CCOCCN1c2ccccc2Sc2ccccc21 (stereo not given) ... No
CN(CCOCCN1c2ccccc2Sc2ccccc21)C(CCO)C(=O)NCc1ccccc1 (stereo not given) ... No
CN(CCC=C1c2ccccc2C=Cc2ccccc21)C(CO)C(=O)NCc1ccccc1 (stereo not given) ... No
CN(CCOCCn1c2ccccc2c2ccccc21)C(CCO)C(=O)NCc1ccccc1Cl (stereo not given) ... Yes
CN(CCC=C1c2ccccc2-c2ccccc21)C(CCO)C(=O)NCc1ccc(F)cc1 (stereo not given) ... Yes
CN(CCC=C1c2ccccc2-c2ccccc21)C(CCO)C(=O)NCc1ccccc1 (stereo not given) ... Yes
